Test system: alpha-2-receptor
Assay: Radioligand binding, alpha-2 adrenoceptor, rat cerebral cortices, [^3 H]-rauwolscine
Conditions: ratio of Ki alpha-1 to Ki alpha-2
Where a name gives a salt, the structure may show the parent alone.
just bin them by alpha-2 - Selectivity Ki alpha-1/Ki alpha 2: low interval: < 100; middle interval: ≥ 100 and < 200; high interval: ≥ 200

| COMPOUND | ASSIGNED CATEGORY |
| --- | --- |
| COc1ccc2c(c1)CCCC2CN1CCC(c2ccccc2)C1 (stereo not drawn) [Example 121, hydrochloride] | low interval |
| CN(CCc1cccc(F)c1)CC1CCCc2c1ccc1c2OCCO1 (stereo not drawn) [Example 167] | low interval |
| Fc1ccc2c(c1)CCCC2CN1CCC(c2cccs2)C1 (stereo not drawn) [Example 149] | low interval |
| COc1ccc2c(c1)CCCC2CN(C)CCc1cccc(F)c1 (stereo not drawn) [Example 6b, hydrochloride] | high interval |
| CCN(CCc1cccs1)CC1CCCc2c1ccc1c2OCO1 (stereo not drawn) [Example 164, hydrochloride] | high interval |
| CN(CCc1ccccc1)CC1CCCc2ccccc21 (stereo not drawn) [Example 88, hydrochloride] | middle interval |
| Fc1ccccc1C1CCN(CC2CCCc3c2ccc2c3OCO2)C1 (stereo not drawn) [Example 176a] | middle interval |
| CN(CCc1cccs1)CC1CCCc2ccccc21 (stereo not drawn) [Example 22, hydrochloride] | high interval |
| CCN(CCc1cccc(F)c1)CC1CCCc2c1ccc1c2OCO1 (stereo not drawn) [Example 165, hydrochloride] | middle interval |
| COc1ccc(C)c2c1CCCC2CN(C)CCc1cccs1 (stereo not drawn) [Example 36, hydrochloride] | low interval |
| c1ccc(C2CCN(CC3CCCc4c3ccc3c4OCO3)C2)cc1 (stereo not drawn) [Example 143a] | low interval |
| COc1ccc2c(c1)CCC2CN(C)CCc1cccs1 (stereo not drawn) [Example 37, hydrochloride] | middle interval |
| COc1ccc2c(c1)CCCC2CN(C)CCc1cccc(O)c1 (stereo not drawn) [Example 83, hydrochloride] | middle interval |
| CCN(CCc1cccc(F)c1)CC1CCCc2cc(OC)ccc21 (stereo not drawn) [Example 42, hydrochloride] | middle interval |
| COc1ccc2c(c1OC)CCCC2CN(C)CCc1cccs1 (stereo not drawn) [Example 86, hydrochloride] | middle interval |
| CN(CCc1ccccc1)CC1CCCc2cc(O)ccc21 (stereo not drawn) [11 (HCl salt)] | middle interval |
| COc1cccc2c1CCCC2CN1CCC(c2cccs2)C1 (stereo not drawn) [Example 146, hydrochloride] | low interval |
| CN(CCc1cccc(F)c1)CC1CCCc2ccccc21 (stereo not drawn) [Example 70, hydrochloride] | middle interval |
| Fc1ccc2c(c1)CCCC2CN1CCC(c2ccccc2)C1 (stereo not drawn) [Example 148] | low interval |
| CCN(CCc1cccs1)CC1CCCc2c1ccc1c2OCCO1 (stereo not drawn) [Example 168, hydrochloride] | middle interval |
| CN(CCc1cccs1)CC1CCCc2cc(O)ccc21 (stereo not drawn) [Example 7, hydrochloride] | high interval |
| CN(CCc1cccs1)CC1CCCc2c(Cl)cccc21 (stereo not drawn) [Example 129, hydrochloride] | low interval |
| COc1ccc2c(c1)CCC2CN1CCC(c2cccc(F)c2)C1 (stereo not drawn) [Example 153, hydrochloride] | low interval |

meta.source: patent US5140040A
